test: Solubility of Compound 7 in various media; format: physicochemical; conditions: pH 7.4 buffer, pH 7.4, aqueous buffer
Metric: solubility (µg/mL)
Enter your answer as a number in µg/mL; do not include the unit.

Problem: # return recorded solubility for input `N#C/C(=C\c1ccc2cc(N3CCCCC3)ccc2c1)C(=O)NCCOCCOCCO`
Result: 3.3

* * *

assay: Rabbit pharmacokinetics of Compound 9, Study 1 (retina, brain, blood); type: in vivo; settings: blood, other: injection (site not specified), Study 1, 30 mg Compound 9 injected, 60 min, read-out: Avg Conc., blood
Measured concentration at 60 min by item
Enter your answer as a number in ng/mL; do not include the unit.

1. N#C/C(=C\c1ccc2cc(N3CCCCC3)ccc2c1)C(=O)NCCOCCOCCO
2.1

Please find the next compound below.
Problem: # return recorded concentration at 60 min for input `N#C/C(=C\c1ccc2cc(N3CCCCC3)ccc2c1)C(=O)NCCOCCOCCOP(=O)(O)O`
Result: 24.9

* * *

assay: Rabbit pharmacokinetics of Compound 9, Study 2 (retina, brain, blood/plasma); assay type: in vivo; conditions: retina, other: injection (site not stated); rabbit, Study 2, 28 mg Compound 9 injected, 10 min; read-out: Avg Conc., retina
Metric: concentration at 10 min (ng/g)
Enter your answer as a number in ng/g; do not include the unit.

Problem: # return recorded concentration at 10 min for input `N#C/C(=C\c1ccc2cc(N3CCCCC3)ccc2c1)C(=O)NCCOCCOCCO`
Result: 183

* * *

test: Solubility of Compound 7 in various media; format: physicochemical; conditions: water
Metric: solubility (µg/mL)
Enter your answer as a number in µg/mL; do not include the unit.

Problem: # return recorded solubility for input `N#C/C(=C\c1ccc2cc(N3CCCCC3)ccc2c1)C(=O)NCCOCCOCCO`
Result: 1.7

* * *

Measured concentration at 10 min by item
test: Rabbit pharmacokinetics of Compound 9, Study 2 (retina, brain, blood/plasma); assay type: in vivo; conditions: plasma, other: injection (site not specified); rabbit, Study 2, 28 mg Compound 9 injected, 10 min; read-out: Avg Conc., plasma
Enter your answer as a number in ng/mL; do not include the unit.

1) N#C/C(=C\c1ccc2cc(N3CCCCC3)ccc2c1)C(=O)NCCOCCOCCO
251

Please find the next compound below.
Problem: # return recorded concentration at 10 min for input `N#C/C(=C\c1ccc2cc(N3CCCCC3)ccc2c1)C(=O)NCCOCCOCCOP(=O)(O)O`
Result: 8860

* * *

assay: Solubility of Compound 7 in various media; type: physicochemical; settings: n-octanol, organic solvent or mixture
Metric: solubility

Problem: # return recorded solubility for input `N#C/C(=C\c1ccc2cc(N3CCCCC3)ccc2c1)C(=O)NCCOCCOCCO`
Result: > 8000 µg/mL

* * *

test: Rabbit pharmacokinetics of Compound 9, Study 2 (retina, brain, blood/plasma); format: in vivo; conditions: brain; rabbit, after injection of Compound 9
Metric: Kp

Problem: # return recorded Kp for input N#C/C(=C\c1ccc2cc(N3CCCCC3)ccc2c1)C(=O)NCCOCCOCCOP(=O)(O)O [Compound 9]
Result: < 0.001

* * *

assay: Rabbit pharmacokinetics of Compound 9, Study 1 (retina, brain, blood); assay type: in vivo; settings: blood, other: injection (site not specified), Study 1, 30 mg Compound 9 injected, 30 min, read-out: Avg Conc., blood
Metric: concentration at 30 min
Give the figure together with its unit, number first.

Problem: # return recorded concentration at 30 min for input `N#C/C(=C\c1ccc2cc(N3CCCCC3)ccc2c1)C(=O)NCCOCCOCCOP(=O)(O)O`
Result: 374 ng/mL

Problem: # return recorded concentration at 30 min for input `N#C/C(=C\c1ccc2cc(N3CCCCC3)ccc2c1)C(=O)NCCOCCOCCO`
Result: 9.41 ng/mL

* * *

assay: Rabbit pharmacokinetics of Compound 9, Study 2 (retina, brain, blood/plasma); type: in vivo; details: plasma, other: injection (site not specified); rabbit, Study 2, 28 mg Compound 9 injected, 5 min; read-out: Avg Conc., plasma
Measured concentration at 5 min by item
Enter your answer as a number in ng/mL; do not include the unit.

1. N#C/C(=C\c1ccc2cc(N3CCCCC3)ccc2c1)C(=O)NCCOCCOCCO [Compound 7]
975

Please find the next compound below.
Problem: # return recorded concentration at 5 min for input N#C/C(=C\c1ccc2cc(N3CCCCC3)ccc2c1)C(=O)NCCOCCOCCOP(=O)(O)O [Compound 9]
Result: 40000

Origin of values: patent US12708676B2
